Test: Cytotoxicity (CC50) in Huh-7
Format: cell-based
Conditions: human, Huh-7 cells; Huh-7 cytotoxicity
Text: The in vitro antiviral activity against HCV of the compounds of formula I can be tested in a cellular HCV replicon system based on Lohmann et al. (1999) Science 285:110-113, with the further modifications described by Krieger et al. (2001) Journal of Virology 75: 4614-4624 (incorporated herein by reference), which is further exemplified in the examples section. […]
endpoint name: CC50

Returns the measured CC50 for the input molecule. Input: CC(C)O[P@@]1(=O)OC[C@H]2O[C@@H](n3ccc(=O)[nH]c3=O)[C@@]3(CCO3)[C@@H]2O1 [Compound 8a] > 100 µM
